Values were extracted from ChEMBL document CHEMBL1136714.

# test target: Sodium-dependent dopamine transporter (Rattus norvegicus, UniProt P23977)
# Sequence (P23977 whole entry): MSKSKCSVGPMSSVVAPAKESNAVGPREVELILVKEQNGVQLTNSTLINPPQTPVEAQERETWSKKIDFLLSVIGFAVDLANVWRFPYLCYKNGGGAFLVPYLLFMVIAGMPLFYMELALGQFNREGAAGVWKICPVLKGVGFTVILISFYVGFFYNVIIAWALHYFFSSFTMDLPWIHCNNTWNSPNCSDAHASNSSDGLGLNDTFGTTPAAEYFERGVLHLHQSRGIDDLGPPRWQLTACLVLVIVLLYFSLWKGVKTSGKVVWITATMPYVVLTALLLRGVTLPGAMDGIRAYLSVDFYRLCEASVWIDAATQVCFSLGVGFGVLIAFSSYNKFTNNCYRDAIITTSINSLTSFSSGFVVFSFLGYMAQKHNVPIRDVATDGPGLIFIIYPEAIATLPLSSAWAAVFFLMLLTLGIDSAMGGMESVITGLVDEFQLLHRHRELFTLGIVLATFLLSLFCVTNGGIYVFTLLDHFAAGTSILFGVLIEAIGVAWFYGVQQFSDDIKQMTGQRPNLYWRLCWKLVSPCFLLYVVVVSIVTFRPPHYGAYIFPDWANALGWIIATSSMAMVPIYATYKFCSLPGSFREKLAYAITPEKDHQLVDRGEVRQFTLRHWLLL
# procedure details: Binding affinity towards dopamine transporter in rat striatum using [3H]WIN-35 428 as radioligand
# Format: tissue-based
pIC50: −log10 of the molar value.
Returns one of 1 or 0; 1 when pIC50 is >= 8.

Answered cases to consult:
molecule	label class
O[C@@H]1CN(Cc2ccc(F)cc2)CC[C@H]1CCOC(c1ccccc1)c1ccccc1	0
CCC(=O)O[C@@H]1CN(Cc2ccc(F)cc2)CC[C@H]1CCOC(c1ccccc1)c1ccccc1	0

In: Record O[C@@H]1CN(Cc2ccc(F)cc2)CC[C@H]1CCOC(c1ccccc1)c1ccccc1 (racemic) ; criterion: pIC50 no lower than 8. Met?
Out: 1

In: Next up: Fc1ccc(CN2CC=C(CCOC(c3ccccc3)c3ccccc3)CC2)cc1
Out: 0

In: Next up: O=C1CN(Cc2ccc(F)cc2)CC[C@H]1CCOC(c1ccccc1)c1ccccc1
Out: 0

In: Next up: OC1CN(Cc2ccc(F)cc2)CC[C@@H]1CCOC(c1ccccc1)c1ccccc1 (some centres not stated)
Out: 1
